For each record, write down the corresponding pIC50.
system_under_test: human Edg-2 receptor (LPA1 receptor) (Homo sapiens, UniProt Q92633)
Sequence (Q92633 whole entry): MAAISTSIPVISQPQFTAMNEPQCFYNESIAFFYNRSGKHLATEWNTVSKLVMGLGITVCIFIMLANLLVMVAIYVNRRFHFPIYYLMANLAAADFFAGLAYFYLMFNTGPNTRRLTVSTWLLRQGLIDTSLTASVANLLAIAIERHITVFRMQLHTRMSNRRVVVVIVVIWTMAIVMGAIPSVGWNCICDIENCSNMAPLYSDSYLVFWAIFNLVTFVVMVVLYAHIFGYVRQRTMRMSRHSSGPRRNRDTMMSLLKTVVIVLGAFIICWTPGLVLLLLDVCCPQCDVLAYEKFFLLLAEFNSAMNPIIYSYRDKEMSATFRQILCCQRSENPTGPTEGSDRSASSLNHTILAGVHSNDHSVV
assay_text: Edg-2 receptor inhibition by FLIPR calcium fluorescence measurement (LPA-mediated calcium liberation)
condition_label: CHO cells stably overexpressing human Edg-2 receptor; LPA 18:1 100 nM; fluo-4 fluorescence; triplicate; read-out: Inhibitory concentrations IC50 for inhibition of the Edg-2 receptor
pIC50: −log10 of the molar value.

Some entries whose results are on file:
molecule	assay_endpoint	test_result
COc1ccc(C(=O)NC2(C(=O)O)Cc3cc(Cl)sc3C2)cc1OCCc1cccc(C)c1 (stereo not drawn)	pIC50	> 7.00
COc1ccc(C(=O)NC2(C(=O)O)Cc3ccccc3C2)cc1-c1csc2ccccc12	pIC50	> 7.00
Cc1cccc(CCOc2cc(C(=O)NC3(C(=O)O)Cc4ccccc4C3)ccc2C)c1	pIC50	6.00 to 7.00
COc1ccc(C(=O)NC2(C(=O)O)Cc3ccccc3C2)cc1-c1cccc(C#N)n1	pIC50	4.52 to 6.00
COc1ccc(C(=O)NC2(C(=O)O)Cc3ccccc3C2)cc1NCCc1cccc(C)c1	pIC50	> 7.00

Go through the list and state pIC50 for each entry.
1. COc1ccc(C(=O)NC2(C(=O)O)Cc3ccccc3C2)cc1OCc1ccc(-n2ccnc2)cc1
2. COc1ccc(C(=O)NC2(C(=O)O)Cc3ccccc3C2)cc1OCCc1c(F)cccc1Cl
3. COc1ccc(C(=O)NC2(C(=O)O)Cc3ccccc3C2)c(F)c1OCCc1cccc(C)c1
4. COc1ccc(C(=O)NC2(C(=O)O)Cc3ccccc3C2)cc1OCCc1ccccc1F
5. Cc1ccc(C(=O)NC2(C(=O)O)Cc3ccccc3C2)cc1OCCc1ccccc1F
6. COc1ccc(C(=O)NC2(C(=O)O)Cc3nccnc3C2)cc1OCCc1cccc(C)c1
7. COc1ccc(C(=O)NC2(C(=O)O)Cc3ccccc3C2)cc1OCc1cc(C)n(C)n1
8. COc1ccc(C(=O)NC2(C(=O)O)Cc3ccccc3C2)cc1OCc1nc2ccccc2n1C

*A*
["4.52 to 6.00", "> 7.00", "4.52 to 6.00", "6.00 to 7.00", "6.00 to 7.00", "4.52 to 6.00", "4.52 to 6.00", "4.52 to 6.00"]

###

Kindly supply the reported pIC50 values for the records listed here.
system_under_test: human Edg-2 receptor (LPA1 receptor) (Homo sapiens)
assay_text: Edg-2 receptor inhibition by FLIPR calcium fluorescence measurement (LPA-mediated calcium liberation)
condition_label: CHO cells stably overexpressing human Edg-2 receptor; LPA 18:1 100 nM; fluo-4 fluorescence; triplicate; read-out: Inhibitory concentrations IC50 for inhibition of the Edg-2 receptor
pIC50: −log10 of the molar value.

Here's what some known entries look like.
compound	pIC50
COc1ccc(C(=O)NC2(C(=O)O)Cc3ccccc3C2)cc1OCCc1cc(-c2ccc(Cl)cc2)no1 [Example 54]	4.52 to 6.00
O=C(NC1(C(=O)O)Cc2ccccc2C1)c1ccc(C(F)(F)F)c(OCCc2c(F)cccc2Cl)c1 [Example 187]	> 7.00
COc1ccc(C(=O)NC2(C(=O)O)Cc3ccccc3C2)cc1-c1cc(Cl)ccc1Cl [Example 303]	> 7.00

Next compound, please.
*Q* Determine its reported pIC50: COc1ccc(C(=O)NC2(C(=O)O)Cc3ccccc3C2)cc1N(C)CCc1cccc(C)c1 [Example 172]
*A* 4.52 to 6.00

###

system_under_test: human Edg-2 receptor (LPA1 receptor) (Homo sapiens)
assay_text: Edg-2 receptor inhibition by FLIPR calcium fluorescence measurement (LPA-mediated calcium liberation)
condition_label: CHO cells stably overexpressing human Edg-2 receptor; LPA 18:1 100 nM; fluo-4 fluorescence; triplicate; read-out: Inhibitory concentrations IC50 for inhibition of the Edg-2 receptor
Could you please report measured IC50 for the items listed next?

Use these answered entries as a reference point.
COc1cc(-c2cc(C(=O)NC3(C(=O)O)Cc4ccccc4C3)ccc2OC)cc(C(F)(F)F)c1 < 0.1 µM
CCN(CC)CCCOc1cc(C(=O)NC2(C(=O)O)Cc3ccccc3C2)ccc1OC 1 to 30 µM
COc1ccc(C(=O)NC2(C(=O)O)Cc3ccccc3C2)cc1-c1cccc(C#N)c1 < 0.1 µM

Quick request: IC50 for each listed item, please.
1. Cc1cccc(CCOc2cc(C(=O)NC3(C(=O)O)Cc4ccccc4C3)ccc2OCC2CCCCC2)c1
2. Cc1cccc(CCOc2cc(C(=O)NC3(C(=O)O)Cc4ccccc4C3)ccc2NC(C)C)c1
3. COc1ccc(C(=O)NC2(C(=O)O)Cc3ccccc3C2)cc1-c1cc(F)cc(OCC(C)C)c1
4. CCOc1ccc2ccccc2c1-c1cc(C(=O)NC2(C(=O)O)Cc3ccccc3C2)ccc1OC

*A*
1: < 0.1 µM; 2: 0.1 to 1 µM; 3: 0.1 to 1 µM; 4: 0.1 to 1 µM

*Q* Output IC50 of `O=C(NC1(C(=O)O)Cc2ccccc2C1)c1ccc(C(F)(F)F)c(OCCc2cccc(Cl)c2)c1`
*A* < 0.1 µM

###

system_under_test: human Edg-2 receptor (LPA1 receptor) (Homo sapiens)
assay_text: Edg-2 receptor inhibition by FLIPR calcium fluorescence measurement (LPA-mediated calcium liberation)
condition_label: CHO cells stably overexpressing human Edg-2 receptor; LPA 18:1 100 nM; fluo-4 fluorescence; triplicate; read-out: Inhibitory concentrations IC50 for inhibition of the Edg-2 receptor
pIC50: −log10 of the molar value.
assay_endpoint: pIC50

Hey, can you go through the list below and give me pIC50 for every item?
1. COc1ccc(C(=O)NC2(C(=O)O)Cc3ccccc3C2)cc1OCCCCc1ccccc1
2. COc1ccc(C(=O)NC2(C(=O)O)Cc3ccccc3C2)cc1-c1cccc(NS(C)(=O)=O)c1
3. COc1ccc(C(=O)NC2(C(=O)O)Cc3ccccc3C2)cc1OCCC1CC1
4. COc1ccc(C(=O)NC2(C(=O)O)Cc3ccccc3C2)cc1-c1cc(F)cc(Cl)c1
5. COc1ccc(C(=O)NC2(C(=O)O)Cc3ccccc3C2)cc1OCC1CC(c2ccccn2)=NO1 (stereo not drawn)
6. Cc1cccc(CCOc2cc(C(=O)NC3(C(=O)O)Cc4ccccc4C3)ccc2OCc2ccccc2)c1

*A*
4.52 to 6.00
> 7.00
4.52 to 6.00
> 7.00
4.52 to 6.00
> 7.00

Dear reader, for each entry below, please note its pIC50.
1. COc1ccc(C(=O)NC2(C(=O)O)Cc3ccccc3C2)cc1-c1cc(F)ccc1OC(C)C
2. COc1ccc(C(=O)NC2(C(=O)O)Cc3ccccc3C2)cc1CCCc1ccccc1
3. COc1ccc(C(=O)NC2(C(=O)O)Cc3ccccc3C2)cc1-c1ccc(C(C)(C)C)cc1

*A*
["> 7.00", "6.00 to 7.00", "4.52 to 6.00"]

###

system_under_test: human Edg-2 receptor (LPA1 receptor) (Homo sapiens)
assay_text: Edg-2 receptor inhibition by FLIPR calcium fluorescence measurement (LPA-mediated calcium liberation)
condition_label: CHO cells stably overexpressing human Edg-2 receptor; LPA 18:1 100 nM; fluo-4 fluorescence; triplicate; read-out: Inhibitory concentrations IC50 for inhibition of the Edg-2 receptor
assay_endpoint: IC50

For every item in the list below, what is its measured IC50?
1. COc1c(F)cc(C(=O)NC2(C(=O)O)Cc3ccccc3C2)cc1OCCc1cccc(C)c1 [Example 106]
2. COc1ccc(C(=O)NC2(C(=O)O)Cc3ccccc3C2)cc1-c1cc(OC(C)C)ccc1F [Example 336]
3. COc1ccc(C(=O)NC2(C(=O)O)Cc3ccccc3C2)cc1OCCc1cc(OC(F)(F)F)ccc1F [Example 355]

*A*
["< 100 nM", "1000 to 30000 nM", "< 100 nM"]

###

system_under_test: human Edg-2 receptor (LPA1 receptor) (Homo sapiens)
assay_text: Edg-2 receptor inhibition by FLIPR calcium fluorescence measurement (LPA-mediated calcium liberation)
condition_label: CHO cells stably overexpressing human Edg-2 receptor; LPA 18:1 100 nM; fluo-4 fluorescence; triplicate; read-out: Inhibitory concentrations IC50 for inhibition of the Edg-2 receptor
pIC50: −log10 of the molar value.
Record form. Attribute: pIC50. Fill in for each entry.

Below, each entry is followed by its recorded pIC50 result.
molecule	test_result
O=C(NC1(C(=O)O)Cc2ccccc2C1)c1ccc(C(F)(F)F)c(OCCc2cc(C(F)(F)F)ccc2F)c1 [Example 191]	> 7.00
COc1ccc(C(=O)NC2(C(=O)O)Cc3ccccc3C2)cc1OCCSc1nccn1C [Example 75]	4.52 to 6.00

Each of the following entries comes with a recorded value; kindly state pIC50 for each.
1. CNC(=O)c1cccc(-c2cc(C(=O)NC3(C(=O)O)Cc4ccccc4C3)ccc2OC)c1 [Example 323]
2. COc1ccc(C(=O)NC2(C(=O)O)Cc3ccccc3C2)cc1OCCC1CCCN1C (stereo not drawn) [Example 64]
3. COc1ccc(CCCCOc2cc(C(=O)NC3(C(=O)O)Cc4ccccc4C3)ccc2OC)cc1 [Example 60]
4. COc1ccc(C(=O)NC2(C(=O)O)Cc3ccccc3C2)cc1CCOc1cccc(C)c1 [Example 115]
5. CCCCCOc1ccc(C(=O)NC2(C(=O)O)Cc3ccccc3C2)cc1OCCc1cccc(C)c1 [Example 263]
6. COc1ccc(C(=O)NC2(C(=O)O)Cc3ccccc3C2)cc1-c1cc(C)cc(C(C)(C)C)c1 [Example 313]

*A*
["4.52 to 6.00", "4.52 to 6.00", "4.52 to 6.00", "4.52 to 6.00", "> 7.00", "> 7.00"]
